Answer each item with its documented % Change in BW.
system: STZ-induced diabetic rats; experiment: Effect on FBG, body weight and HbA1C over 6 weeks; type: in vivo, Sprague Dawley rats; details: Day 0 to Day 42
Dear colleague, please return just the value in %, with no unit written.

# input Assign % Change in BW to the following record: CC(=O)Nc1ccc(S(=O)(=O)N2CC(=O)NC2=S)cc1
# output −8.7

# input Assign % Change in BW to the following record: Cc1ccc(S(=O)(=O)N2CC(=O)NC2=S)cc1C(=O)O
# output −7.7

# input Assign % Change in BW to the following record: O=C1CN(S(=O)(=O)c2cccc(C(=O)O)c2)C(=S)N1
# output −7.1

# input Assign % Change in BW to the following record: CC(=O)c1cccc(S(=O)(=O)N2CC(=O)NC2=S)c1
# output −4.7

----------
experiment: DPPH free radical scavenging assay; settings: 12.5 µg/mL
Quantity: DPPH free radical scavenging % inhibition (%)
Dear colleague, please return just the value in %, with no unit written.

# input Assign DPPH free radical scavenging % inhibition to the following record: Cc1ccc(S(=O)(=O)N2CC(=O)NC2=S)cc1C(=O)O
# output 44.5

# input Assign DPPH free radical scavenging % inhibition to the following record: CC(=O)Nc1ccc(S(=O)(=O)N2CC(=O)NC2=S)cc1
# output 38.1

# input Assign DPPH free radical scavenging % inhibition to the following record: O=C1O[C@H]([C@@H](O)CO)C(O)=C1O [Ascorbic Acid, reference compound]
# output 68.9

# input Assign DPPH free radical scavenging % inhibition to the following record: CC(=O)c1cccc(S(=O)(=O)N2CC(=O)NC2=S)c1
# output 55.7

# input Assign DPPH free radical scavenging % inhibition to the following record: COc1ccc(S(=O)(=O)N2CC(=O)NC2=S)cc1C(=O)O
# output 24.9

# input Assign DPPH free radical scavenging % inhibition to the following record: O=C1CN(S(=O)(=O)c2cc(C(=O)O)ccc2Cl)C(=S)N1
# output 21.5

# input Assign DPPH free radical scavenging % inhibition to the following record: O=C1CN(S(=O)(=O)c2cccc(C(=O)O)c2)C(=S)N1
# output 47.6

# input Assign DPPH free radical scavenging % inhibition to the following record: Cc1ccc(S(=O)(=O)N2CC(=O)NC2=S)cc1
# output 27.9

----------
target: α-glucosidase (EC3.2.1.20) (Saccharomyces cerevisiae, UniProt P53341); construct: purchased Sigma-Aldrich; experiment: α-Glucosidase inhibitory activity assay; format: biochemical; details: read-out: %Inhibition (200 µg/ml) alpha glucosidase
Sequence (P53341 whole entry): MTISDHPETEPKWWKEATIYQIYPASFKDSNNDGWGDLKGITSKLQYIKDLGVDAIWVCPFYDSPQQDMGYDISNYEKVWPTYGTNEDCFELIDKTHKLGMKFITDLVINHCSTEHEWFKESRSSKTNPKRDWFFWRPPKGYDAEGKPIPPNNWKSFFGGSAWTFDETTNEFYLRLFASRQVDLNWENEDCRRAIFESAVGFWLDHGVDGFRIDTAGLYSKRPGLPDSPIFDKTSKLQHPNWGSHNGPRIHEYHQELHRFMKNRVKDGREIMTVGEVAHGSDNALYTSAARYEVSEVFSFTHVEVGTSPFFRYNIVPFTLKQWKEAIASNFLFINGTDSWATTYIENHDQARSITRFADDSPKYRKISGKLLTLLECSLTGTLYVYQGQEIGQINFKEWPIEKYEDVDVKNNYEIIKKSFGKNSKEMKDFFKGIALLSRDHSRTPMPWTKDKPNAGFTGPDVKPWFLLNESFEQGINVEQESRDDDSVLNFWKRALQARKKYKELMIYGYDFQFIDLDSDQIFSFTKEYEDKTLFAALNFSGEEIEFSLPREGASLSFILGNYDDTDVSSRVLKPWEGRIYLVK
Decision: inhibition at 200 µg/mL compared against 40%; not below it gives yes, below it gives no.

# input Textbook exercise: given the entry COc1ccc(S(=O)(=O)N2CC(=O)NC2=S)cc1C(=O)O , state whether its inhibition at 200 µg/mL is greater than or equal to 40%.
# output no

# input Textbook exercise: given the entry O=C1CN(S(=O)(=O)c2cc(C(=O)O)ccc2Cl)C(=S)N1 , state whether its inhibition at 200 µg/mL is greater than or equal to 40%.
# output no

# input Textbook exercise: given the entry O=C1CN(S(=O)(=O)c2cccc(C(=O)O)c2)C(=S)N1 , state whether its inhibition at 200 µg/mL is greater than or equal to 40%.
# output yes

# input Textbook exercise: given the entry CC(=O)c1cccc(S(=O)(=O)N2CC(=O)NC2=S)c1 , state whether its inhibition at 200 µg/mL is greater than or equal to 40%.
# output yes

# input Textbook exercise: given the entry Cc1ccc(S(=O)(=O)N2CC(=O)NC2=S)cc1C(=O)O , state whether its inhibition at 200 µg/mL is greater than or equal to 40%.
# output no

# input Textbook exercise: given the entry CC(=O)Nc1ccc(S(=O)(=O)N2CC(=O)NC2=S)cc1 , state whether its inhibition at 200 µg/mL is greater than or equal to 40%.
# output yes

----------
test system: STZ-induced diabetic rats; assay: Fasting blood glucose and oral glucose tolerance test (OGTT); assay type: in vivo, Sprague Dawley rats; details: Table 7, mean ± SD, 5 rats per group
Answer each item with its documented Fasting blood glucose.
Dear colleague, please return just the value in mg/dL, with no unit written.

# input Assign Fasting blood glucose to the following record: COc1ccc(S(=O)(=O)N2CC(=O)NC2=S)cc1C(=O)O
# output 249.1

# input Assign Fasting blood glucose to the following record: Cc1ccc(S(=O)(=O)N2CC(=O)NC2=S)cc1
# output 255.7

# input Assign Fasting blood glucose to the following record: CC(=O)c1cccc(S(=O)(=O)N2CC(=O)NC2=S)c1
# output 218.4

# input Assign Fasting blood glucose to the following record: O=C1CN(S(=O)(=O)c2cccc(C(=O)O)c2)C(=S)N1
# output 229.9

# input Assign Fasting blood glucose to the following record: O=C1CN(S(=O)(=O)c2cc(C(=O)O)ccc2Cl)C(=S)N1
# output 258.2

# input Assign Fasting blood glucose to the following record: Cc1ccc(S(=O)(=O)N2CC(=O)NC2=S)cc1C(=O)O
# output 236.1

# input Assign Fasting blood glucose to the following record: CC(=O)Nc1ccc(S(=O)(=O)N2CC(=O)NC2=S)cc1
# output 245.9

# input Assign Fasting blood glucose to the following record: CN(C)C(=N)N=C(N)N [Metformin, reference compound]
# output 119.2

----------
Answer each item with its documented BW (Day 42).
test system: STZ-induced diabetic rats; test: Effect on FBG, body weight and HbA1C over 6 weeks; format: in vivo, Sprague Dawley rats; settings: Day 42 of treatment
Entry format: amount then unit.

# input Report measured BW (Day 42) on STZ-induced diabetic rats; entry: Cc1ccc(S(=O)(=O)N2CC(=O)NC2=S)cc1C(=O)O [FP5]
# output 200.1 ± 8.5 g

# input Report measured BW (Day 42) on STZ-induced diabetic rats; entry: CN(C)C(=N)N=C(N)N [Metformin, reference compound]
# output 225.6 ± 9.4 g

# input Report measured BW (Day 42) on STZ-induced diabetic rats; entry: CC(=O)c1cccc(S(=O)(=O)N2CC(=O)NC2=S)c1 [FP4]
# output 205.7 ± 8.6 g

# input Report measured BW (Day 42) on STZ-induced diabetic rats; entry: CC(=O)Nc1ccc(S(=O)(=O)N2CC(=O)NC2=S)cc1 [FP1]
# output 198.6 ± 7.8 g

# input Report measured BW (Day 42) on STZ-induced diabetic rats; entry: O=C1CN(S(=O)(=O)c2cccc(C(=O)O)c2)C(=S)N1 [FP2]
# output 202.8 ± 7.9 g

----------
tested on: STZ-induced diabetic rats; assay: Effect on FBG, body weight and HbA1C over 6 weeks; assay type: in vivo, Sprague Dawley rats; parameters: concentration or dose not given beside the values; conditions: Day 0 to Day 42
Quantity: % Reduction in FBG (%)
Dear colleague, please return just the value in %, with no unit written.

# input Assign % Reduction in FBG to the following record: O=C1CN(S(=O)(=O)c2cccc(C(=O)O)c2)C(=S)N1 [FP2]
# output 24.9

# input Assign % Reduction in FBG to the following record: Cc1ccc(S(=O)(=O)N2CC(=O)NC2=S)cc1C(=O)O [FP5]
# output 21.6

# input Assign % Reduction in FBG to the following record: CN(C)C(=N)N=C(N)N [Metformin, reference compound]
# output 49.5

# input Assign % Reduction in FBG to the following record: CC(=O)Nc1ccc(S(=O)(=O)N2CC(=O)NC2=S)cc1 [FP1]
# output 17.6

# input Assign % Reduction in FBG to the following record: CC(=O)c1cccc(S(=O)(=O)N2CC(=O)NC2=S)c1 [FP4]
# output 28.9

----------
Tested on: STZ-induced diabetic rats
Assay: Effect on FBG, body weight and HbA1C over 6 weeks
Format: in vivo, Sprague Dawley rats
Conditions: Day 42 of treatment
Description: Diabetes will be induced in rats (n = 6 per group) by a single intraperitoneal injection of 60-100 mg/kg body weight (BW) streptozotocin dissolved in normal saline. […] Diabetic Rats (n = 6 per group) will be randomly assigned to groups of six animals each in order to examine the impact of synthetic derivatives on FBG level, BW, and HbA1C. […] At the beginning of the experiment and at weekly intervals during the first 42 days of therapy, the FBG level and BW will be measured. […]
Quantity: FBG (Day 42) (mg/dL)
Dear colleague, please return just the value in mg/dL, with no unit written.

# input Assign FBG (Day 42) to the following record: O=C1CN(S(=O)(=O)c2cccc(C(=O)O)c2)C(=S)N1
# output 210.7

# input Assign FBG (Day 42) to the following record: CC(=O)c1cccc(S(=O)(=O)N2CC(=O)NC2=S)c1
# output 198.4

# input Assign FBG (Day 42) to the following record: CC(=O)Nc1ccc(S(=O)(=O)N2CC(=O)NC2=S)cc1
# output 232.9

# input Assign FBG (Day 42) to the following record: CN(C)C(=N)N=C(N)N [Metformin, reference compound]
# output 142.5

# input Assign FBG (Day 42) to the following record: Cc1ccc(S(=O)(=O)N2CC(=O)NC2=S)cc1C(=O)O
# output 220.2
